TARGET_DESC: human IL-13 (recombinant E. coli-expressed) (human, UniProt P35225 35-146)
Sequence (P35225 other isoform, or with tags, fused parts or gaps limits assumed): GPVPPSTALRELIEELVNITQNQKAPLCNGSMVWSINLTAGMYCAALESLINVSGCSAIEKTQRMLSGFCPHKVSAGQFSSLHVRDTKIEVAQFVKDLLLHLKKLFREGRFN
PROCEDURE_SUMMARY: cell-based or functional assay
PROPERTY_MEASURED: ND50 (nM), TF-1 cell proliferation bioassay
I only need the number, in nM, no unit after it.

Please list ND50 (nM), TF-1 cell proliferation bioassay recorded for the binder A1L1 (antibody, human IgG1, kappa, V domains shown, Humanised version of murine 6A1, human IgG1 kappa; also called parental; 586 (mAb)) VH: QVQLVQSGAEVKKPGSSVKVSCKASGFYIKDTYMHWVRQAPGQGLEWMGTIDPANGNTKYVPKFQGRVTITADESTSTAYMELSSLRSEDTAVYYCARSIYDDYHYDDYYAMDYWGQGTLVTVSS VL: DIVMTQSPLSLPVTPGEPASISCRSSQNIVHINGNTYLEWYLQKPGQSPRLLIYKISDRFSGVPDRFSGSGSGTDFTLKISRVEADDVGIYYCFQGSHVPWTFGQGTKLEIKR
9.77

Dear colleague, please send me the reported ND50 (nM), TF-1 cell proliferation bioassay for A1Y100B AlaL1 (antibody, human IgG1, kappa, V domains shown, CDRH3 variant of A1L1) VH: QVQLVQSGAEVKKPGSSVKVSCKASGFYIKDTYMHWVRQAPGQGLEWMGTIDPANGNTKYVPKFQGRVTITADESTSTAYMELSSLRSEDTAVYYCARSIYDDYHADDYYAMDYWGQGTLVTVSS VL: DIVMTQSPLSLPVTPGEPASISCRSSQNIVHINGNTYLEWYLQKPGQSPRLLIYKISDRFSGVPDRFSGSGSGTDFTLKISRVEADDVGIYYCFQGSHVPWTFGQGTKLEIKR when you can.
0.92

Quickly give me recorded ND50 (nM), TF-1 cell proliferation bioassay for A1Y100B TrpL1 (antibody, human IgG1, kappa, V domains shown, CDRH3 variant of A1L1) VH: QVQLVQSGAEVKKPGSSVKVSCKASGFYIKDTYMHWVRQAPGQGLEWMGTIDPANGNTKYVPKFQGRVTITADESTSTAYMELSSLRSEDTAVYYCARSIYDDYHWDDYYAMDYWGQGTLVTVSS VL: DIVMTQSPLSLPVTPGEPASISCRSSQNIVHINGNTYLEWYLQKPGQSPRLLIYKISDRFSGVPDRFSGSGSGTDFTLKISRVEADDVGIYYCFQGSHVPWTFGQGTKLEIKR
1.25

For the binder A1Y100B IleL1 (antibody, human IgG1, kappa, V domains shown, CDRH3 variant of A1L1) VH: QVQLVQSGAEVKKPGSSVKVSCKASGFYIKDTYMHWVRQAPGQGLEWMGTIDPANGNTKYVPKFQGRVTITADESTSTAYMELSSLRSEDTAVYYCARSIYDDYHIDDYYAMDYWGQGTLVTVSS VL: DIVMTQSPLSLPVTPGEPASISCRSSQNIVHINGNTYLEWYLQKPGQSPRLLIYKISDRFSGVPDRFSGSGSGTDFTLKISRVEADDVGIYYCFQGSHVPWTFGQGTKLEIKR , report ND50 (nM), TF-1 cell proliferation bioassay.
1.1
